# method_description: Plasma pharmacokinetics in patients (HPLC-MS/MS, noncompartmental)
# measurement_context: human, plasma, oral, 70 mg
measurement_label: Cmax (ng/mL)
Report as a plain number; the unit ng/mL is understood.

Form field: reported Cmax of CN(C)C/C=C/C(=O)Nc1cc2c(Nc3ccc(F)c(Cl)c3)ncnc2cc1O[C@H]1CCOC1 [BIBW 2992]
180

----------
# method_description: Plasma pharmacokinetics in patients (HPLC-MS/MS, noncompartmental)
# measurement_context: human, plasma, oral
measurement_label: Vd/F

Please report the recorded Vd/F for `CN(C)C/C=C/C(=O)Nc1cc2c(Nc3ccc(F)c(Cl)c3)ncnc2cc1O[C@H]1CCOC1` .
1250 to 4760 L

----------
# method_description: Plasma pharmacokinetics in patients (HPLC-MS/MS, noncompartmental)
# measurement_context: human, plasma, oral, 70 mg
measurement_label: Tmax (h)
Hi! Could you send only the number? It should be in h, unit omitted.

# get_value(readout='Tmax', item= CN(C)C/C=C/C(=O)Nc1cc2c(Nc3ccc(F)c(Cl)c3)ncnc2cc1O[C@H]1CCOC1 [BIBW 2992] )
2

----------
# method_description: Plasma pharmacokinetics in patients (HPLC-MS/MS, noncompartmental)
# measurement_context: human, plasma, oral, 85 mg
measurement_label: Tmax (h)
Value expressed in h; do not type the unit.

For CN(C)C/C=C/C(=O)Nc1cc2c(Nc3ccc(F)c(Cl)c3)ncnc2cc1O[C@H]1CCOC1 [BIBW 2992] , what is its reported Tmax?
2

----------
# method_description: Plasma pharmacokinetics in patients (HPLC-MS/MS, noncompartmental)
# measurement_context: human, plasma, oral, 30 mg
measurement_label: half-life (h)
Respond with the bare value in h.

I would be grateful if you could share the reported half-life for `CN(C)C/C=C/C(=O)Nc1cc2c(Nc3ccc(F)c(Cl)c3)ncnc2cc1O[C@H]1CCOC1` .
37.7

----------
# method_description: Plasma pharmacokinetics in patients (HPLC-MS/MS, noncompartmental)
# measurement_context: human, plasma, oral, 45 mg
measurement_label: AUC(0-t) (ng·h/mL)
Answer with a number only, understood to be in ng·h/mL.

Given `CN(C)C/C=C/C(=O)Nc1cc2c(Nc3ccc(F)c(Cl)c3)ncnc2cc1O[C@H]1CCOC1` , state its recorded AUC(0-t).
840

----------
# method_description: Plasma pharmacokinetics in patients (HPLC-MS/MS, noncompartmental)
# measurement_context: human, plasma, oral, 70 mg
measurement_label: Vd/F (L)
The reply should contain only the number, in L.

// lookup Vd/F for `CN(C)C/C=C/C(=O)Nc1cc2c(Nc3ccc(F)c(Cl)c3)ncnc2cc1O[C@H]1CCOC1`
1530

----------
# method_description: Plasma pharmacokinetics in patients (HPLC-MS/MS, noncompartmental)
# measurement_context: human, plasma, oral, 10 mg
measurement_label: CL/F (mL/min)
Report only the number, with the unit mL/min understood.

Query (molecule): `CN(C)C/C=C/C(=O)Nc1cc2c(Nc3ccc(F)c(Cl)c3)ncnc2cc1O[C@H]1CCOC1` ; field requested: CL/F
839
